Values from BigSolDB 2.1

# condition_info: in acetone, 289.05 K
value_kind: solubility (mole fraction)
Lab note: record the figure alone, no unit after it.

Data request, read-out solubility (mole fraction), for ON(Cc1ccccc1)Cc1ccccc1
0.0159

* * *

# condition_info: in n-octanol, 293.25 K
value_kind: solubility (mole fraction)
Lab note: record the figure alone, no unit after it.

Data request, read-out solubility (mole fraction), for ON(Cc1ccccc1)Cc1ccccc1
0.00449

* * *

# condition_info: in toluene, 279.15 K
value_kind: solubility (mole fraction)
Lab note: record the figure alone, no unit after it.

Data request, read-out solubility (mole fraction), for ON(Cc1ccccc1)Cc1ccccc1
0.00586

* * *

# condition_info: in acetone, 313.15 K
value_kind: solubility (mole fraction)
Lab note: record the figure alone, no unit after it.

Data request, read-out solubility (mole fraction), for ON(Cc1ccccc1)Cc1ccccc1
0.0425

* * *

# condition_info: in n-propanol, 308.05 K
value_kind: solubility (mole fraction)

Data request, read-out solubility (mole fraction), for ON(Cc1ccccc1)Cc1ccccc1
0.00781

* * *

# condition_info: in THF, 284.15 K
value_kind: solubility (mole fraction)
Lab note: record the figure alone, no unit after it.

Data request, read-out solubility (mole fraction), for ON(Cc1ccccc1)Cc1ccccc1
0.0678

* * *

# condition_info: in n-pentanol, 284.15 K
value_kind: solubility (mole fraction)

Data request, read-out solubility (mole fraction), for ON(Cc1ccccc1)Cc1ccccc1
0.00291

* * *

# condition_info: in isopropanol, 279.15 K
value_kind: solubility (mole fraction)
Lab note: record the figure alone, no unit after it.

Data request, read-out solubility (mole fraction), for ON(Cc1ccccc1)Cc1ccccc1
0.000822

* * *

# condition_info: in isobutanol, 289.15 K
value_kind: solubility (mole fraction)
Lab note: record the figure alone, no unit after it.

Data request, read-out solubility (mole fraction), for ON(Cc1ccccc1)Cc1ccccc1
0.00208

* * *

# condition_info: in cyclohexanone, 273.15 K
value_kind: solubility (mole fraction)
Lab note: record the figure alone, no unit after it.

Data request, read-out solubility (mole fraction), for ON(Cc1ccccc1)Cc1ccccc1
0.0233

* * *

# condition_info: in 1,2,4-trichlorobenzene, 303.25 K
value_kind: solubility (mole fraction)
Lab note: record the figure alone, no unit after it.

Data request, read-out solubility (mole fraction), for ON(Cc1ccccc1)Cc1ccccc1
0.0138

* * *

# condition_info: in ethanol, 313.15 K
value_kind: solubility (mole fraction)
Lab note: record the figure alone, no unit after it.

Data request, read-out solubility (mole fraction), for ON(Cc1ccccc1)Cc1ccccc1
0.00863

* * *

# condition_info: in ethanol, 289.05 K
value_kind: solubility (mole fraction)
Lab note: record the figure alone, no unit after it.

Data request, read-out solubility (mole fraction), for ON(Cc1ccccc1)Cc1ccccc1
0.00281

* * *

# condition_info: in 1,2,4-trichlorobenzene, 293.75 K
value_kind: solubility (mole fraction)

Data request, read-out solubility (mole fraction), for ON(Cc1ccccc1)Cc1ccccc1
0.00704

* * *

# condition_info: in n-pentanol, 289.15 K
value_kind: solubility (mole fraction)
Lab note: record the figure alone, no unit after it.

Data request, read-out solubility (mole fraction), for ON(Cc1ccccc1)Cc1ccccc1
0.00386

* * *

# condition_info: in THF, 279.15 K
value_kind: solubility (mole fraction)

Data request, read-out solubility (mole fraction), for ON(Cc1ccccc1)Cc1ccccc1
0.0594

* * *

# condition_info: in 1,2-dichlorobenzene, 309.05 K
value_kind: solubility (mole fraction)

Data request, read-out solubility (mole fraction), for ON(Cc1ccccc1)Cc1ccccc1
0.024

* * *

# condition_info: in toluene, 323.35 K
value_kind: solubility (mole fraction)
Lab note: record the figure alone, no unit after it.

Data request, read-out solubility (mole fraction), for ON(Cc1ccccc1)Cc1ccccc1
0.0398

* * *

# condition_info: in n-octanol, 289.15 K
value_kind: solubility (mole fraction)
Lab note: record the figure alone, no unit after it.

Data request, read-out solubility (mole fraction), for ON(Cc1ccccc1)Cc1ccccc1
0.00352

* * *

# condition_info: in isopropanol, 293.25 K
value_kind: solubility (mole fraction)
Lab note: record the figure alone, no unit after it.

Data request, read-out solubility (mole fraction), for ON(Cc1ccccc1)Cc1ccccc1
0.00206

* * *

# condition_info: in acetone, 317.15 K
value_kind: solubility (mole fraction)
Lab note: record the figure alone, no unit after it.

Data request, read-out solubility (mole fraction), for ON(Cc1ccccc1)Cc1ccccc1
0.0489

* * *

# condition_info: in 1,2,4-trichlorobenzene, 313.15 K
value_kind: solubility (mole fraction)
Lab note: record the figure alone, no unit after it.

Data request, read-out solubility (mole fraction), for ON(Cc1ccccc1)Cc1ccccc1
0.0263

* * *

# condition_info: in cyclohexanone, 283.65 K
value_kind: solubility (mole fraction)
Lab note: record the figure alone, no unit after it.

Data request, read-out solubility (mole fraction), for ON(Cc1ccccc1)Cc1ccccc1
0.0341

* * *

# condition_info: in n-propanol, 273.15 K
value_kind: solubility (mole fraction)
Lab note: record the figure alone, no unit after it.

Data request, read-out solubility (mole fraction), for ON(Cc1ccccc1)Cc1ccccc1
0.00136

* * *

# condition_info: in dichloromethane, 273.15 K
value_kind: solubility (mole fraction)

Data request, read-out solubility (mole fraction), for ON(Cc1ccccc1)Cc1ccccc1
0.0132

* * *

# condition_info: in acetonitrile, 323.15 K
value_kind: solubility (mole fraction)

Data request, read-out solubility (mole fraction), for ON(Cc1ccccc1)Cc1ccccc1
0.0217

* * *

# condition_info: in isopropanol, 283.65 K
value_kind: solubility (mole fraction)
Lab note: record the figure alone, no unit after it.

Data request, read-out solubility (mole fraction), for ON(Cc1ccccc1)Cc1ccccc1
0.00111

* * *

# condition_info: in THF, 318.15 K
value_kind: solubility (mole fraction)
Lab note: record the figure alone, no unit after it.

Data request, read-out solubility (mole fraction), for ON(Cc1ccccc1)Cc1ccccc1
0.152

* * *

# condition_info: in n-octanol, 323.35 K
value_kind: solubility (mole fraction)
Lab note: record the figure alone, no unit after it.

Data request, read-out solubility (mole fraction), for ON(Cc1ccccc1)Cc1ccccc1
0.022

* * *

# condition_info: in isobutanol, 309.05 K
value_kind: solubility (mole fraction)
Lab note: record the figure alone, no unit after it.

Data request, read-out solubility (mole fraction), for ON(Cc1ccccc1)Cc1ccccc1
0.00613

* * *

# condition_info: in toluene, 283.65 K
value_kind: solubility (mole fraction)
Lab note: record the figure alone, no unit after it.

Data request, read-out solubility (mole fraction), for ON(Cc1ccccc1)Cc1ccccc1
0.00732

* * *

# condition_info: in dichloromethane, 293.05 K
value_kind: solubility (mole fraction)
Lab note: record the figure alone, no unit after it.

Data request, read-out solubility (mole fraction), for ON(Cc1ccccc1)Cc1ccccc1
0.0345

* * *

# condition_info: in n-pentanol, 299.15 K
value_kind: solubility (mole fraction)
Lab note: record the figure alone, no unit after it.

Data request, read-out solubility (mole fraction), for ON(Cc1ccccc1)Cc1ccccc1
0.00631

* * *

# condition_info: in n-octanol, 303.25 K
value_kind: solubility (mole fraction)

Data request, read-out solubility (mole fraction), for ON(Cc1ccccc1)Cc1ccccc1
0.00789

* * *

# condition_info: in acetonitrile, 308.05 K
value_kind: solubility (mole fraction)
Lab note: record the figure alone, no unit after it.

Data request, read-out solubility (mole fraction), for ON(Cc1ccccc1)Cc1ccccc1
0.0108

* * *

# condition_info: in THF, 303.25 K
value_kind: solubility (mole fraction)
Lab note: record the figure alone, no unit after it.

Data request, read-out solubility (mole fraction), for ON(Cc1ccccc1)Cc1ccccc1
0.109

* * *

# condition_info: in ethanol, 323.15 K
value_kind: solubility (mole fraction)
Lab note: record the figure alone, no unit after it.

Data request, read-out solubility (mole fraction), for ON(Cc1ccccc1)Cc1ccccc1
0.013

* * *

# condition_info: in acetonitrile, 302.85 K
value_kind: solubility (mole fraction)
Lab note: record the figure alone, no unit after it.

Data request, read-out solubility (mole fraction), for ON(Cc1ccccc1)Cc1ccccc1
0.00815

* * *

# condition_info: in cyclohexanone, 289.15 K
value_kind: solubility (mole fraction)
Lab note: record the figure alone, no unit after it.

Data request, read-out solubility (mole fraction), for ON(Cc1ccccc1)Cc1ccccc1
0.041

* * *

# condition_info: in 1,2,4-trichlorobenzene, 323.15 K
value_kind: solubility (mole fraction)
Lab note: record the figure alone, no unit after it.

Data request, read-out solubility (mole fraction), for ON(Cc1ccccc1)Cc1ccccc1
0.0502
